target: CDK2/CycA2 kinase (Homo sapiens)
measurement-description: Determination of inhibitory activity against CDK2/CycA2 kinase
Assay type: biochemical
recorded-conditions: read-out: CDK2/CycA2 10 µM ATP (kinase) IC50
readout-kind: IC50

>>> print(df.to_string())
                                   molecule  readout_kind  reading
0  C[C@H](NC(=O)O[C@@H]1CC[C@H](c2cc(Nc3ccc4c(c3)CS(=O)(=O)C4)[nH]n2)C1)C1CC1          IC50  < 10 nM

Input line: What IC50 appears in the records for this molecule with CDK2/CycA2 kinase (Homo sapiens)? CC(NC(=O)OC1CCC(c2cc(Nc3ccc4c(c3)CS(=O)(=O)C4)[nH]n2)C1)C1CC1 (stereo not shown)
Output line: < 10 nM

Input line: What IC50 appears in the records for this molecule with CDK2/CycA2 kinase (Homo sapiens)? CC(C)NC(=O)OC1CCC(c2cc(Nc3ccc4c(c3)C[S+]([O-])C4)n[nH]2)C1 (stereo not shown)
Output line: 10 to 50 nM

Input line: What IC50 appears in the records for this molecule with CDK2/CycA2 kinase (Homo sapiens)? CC1(C)CCN1C(=O)OC1CCC(c2cc(Nc3ccc4c(c3)CS(=O)(=O)C4)[nH]n2)C1 (stereo not shown)
Output line: < 10 nM

* * *

target: CDK2/CycA2 kinase (Homo sapiens, UniProt P24941)
measurement-description: Determination of inhibitory activity against CDK2/CycA2 kinase
Format: biochemical
recorded-conditions: CDK2/CycA2 10 µM ATP (kinase) IC50 (nM)
Recorded IC50 by entry

>>> df
                                   compound                                    target  readout_kind      reading
0  CC(C)(C)NC(=O)OC1CCC(c2cc(Nc3ccc4c(c3)C[S+]([O-])C4)n[nH]2)C1 (stereo not shown) [Compound 14]  CDK2/CycA2 kinase (Homo sapiens, UniProt P24941)          IC50      < 10 nM
1  CCNC(=O)OC1CCC(c2cc(Nc3ccc4c(c3)CS(=O)(=O)C4)[nH]n2)C1 (stereo not shown) [Compound 10]  CDK2/CycA2 kinase (Homo sapiens, UniProt P24941)          IC50      < 10 nM
2  O=C(NCC(F)F)OC1CCC(c2cc(Nc3ccc4c(c3)CS(=O)(=O)C4)[nH]n2)C1 (stereo not shown) [Compound 13]  CDK2/CycA2 kinase (Homo sapiens, UniProt P24941)          IC50      < 10 nM
3  CC1(C)CCN1C(=O)OC1CCC(c2cc(Nc3ccc4c(c3)C[S+]([O-])C4)[nH]n2)C1 (stereo not shown) [Compound 30]  CDK2/CycA2 kinase (Homo sapiens, UniProt P24941)          IC50  10 to 50 nM
4  CC1(NC(=O)OC2CCC(c3cc(Nc4ccc5c(c4)C[S+]([O-])C5)[nH]n3)C2)CC1 (stereo not shown) [Compound 25]  CDK2/CycA2 kinase (Homo sapiens, UniProt P24941)          IC50  10 to 50 nM

Input line: Look at this compound and give its reported IC50. CC1(NC(=O)OC2CCC(c3cc(Nc4ccc5c(c4)C[S+]([O-])C5)[nH]n3)C2)CC1 (stereo not shown) [Compound 31]
Output line: < 10 nM

Input line: Look at this compound and give its reported IC50. O=C(NC12CC(C1)C2)OC1CCC(c2cc(Nc3ccc4c(c3)C[S+]([O-])C4)n[nH]2)C1 (stereo not shown) [Compound 16]
Output line: < 10 nM

Input line: Look at this compound and give its reported IC50. CC(C)NC(=O)OC1CCC(c2cc(Nc3cc(F)c4c(c3)CS(=O)(=O)C4)[nH]n2)C1 (stereo not shown) [Compound 11]
Output line: < 10 nM

Input line: Look at this compound and give its reported IC50. CC1CN(C)CCN1C(=O)OC1CCC(c2cc(Nc3ccc4c(c3)CS(=O)(=O)C4)[nH]n2)C1 (stereo not shown) [Compound 21]
Output line: < 10 nM

Input line: Look at this compound and give its reported IC50. CC(C)(C)NC(=O)OC1CCC(c2cc(Nc3ccc4c(c3)CS(=O)(=O)C4)[nH]n2)C1 (stereo not shown) [Compound 4]
Output line: < 10 nM

* * *

target: CDK2/CycA2 kinase (Homo sapiens, UniProt P24941)
measurement-description: Determination of inhibitory activity against CDK2/CycA2 kinase
Format: biochemical
recorded-conditions: CDK2/CycA2 10 µM ATP (kinase) IC50 (nM)
Experimental: 1.1 Determination of inhibitory activity against CDK2/CycA2 kinase CDK2/CycA2 kinase solution (concentration: 0.078 ng/µL) was added to assay wells at 6 µL/well, and different compounds dissolved in DMSO were added to the assay wells separately using a nanoliter pipettor, such that the final concentrations of the compounds were 1000 nM to 0.244 nM. The wells were set in duplicate, and a control well was set. […]
readout-kind: IC50

Use these answered entries as a reference point.
>>> df
                                   compound      reading
0  CC(C)NC(=O)OC1CCC(c2cc(Nc3ccc4c(c3)C[S+]([O-])C4)n[nH]2)C1 (centres unmarked)  10 to 50 nM
1  CC1(C)CCN1C(=O)OC1CCC(c2cc(Nc3ccc4c(c3)C[S+]([O-])C4)[nH]n2)C1 (centres unmarked) [Compound 29]      < 10 nM
2  O=C(NC12CC(C1)C2)OC1CCC(c2cc(Nc3ccc4c(c3)CS(=O)(=O)C4)[nH]n2)C1 (centres unmarked)      < 10 nM

Input line: Look at this compound and give its reported IC50. CC1(C)CCN1C(=O)OC1CCC(c2cc(Nc3ccc4c(c3)CS(=O)(=O)C4)[nH]n2)C1 (centres unmarked)
Output line: < 10 nM

Input line: Look at this compound and give its reported IC50. O=C(NCC(F)(F)F)OC1CCC(c2cc(Nc3ccc4c(c3)CS(=O)(=O)C4)[nH]n2)C1 (centres unmarked)
Output line: 10 to 50 nM

Input line: Look at this compound and give its reported IC50. O=C(NC1CCC1)OC1CCC(c2cc(Nc3ccc4c(c3)CS(=O)(=O)C4)[nH]n2)C1 (centres unmarked)
Output line: < 10 nM

Input line: Look at this compound and give its reported IC50. CC(C)(CCO)NC(=O)OC1CCC(c2cc(Nc3ccc4c(c3)CS(=O)(=O)C4)[nH]n2)C1 (centres unmarked)
Output line: 10 to 50 nM

Input line: Look at this compound and give its reported IC50. CC1(C)CCN1C(=O)OC1CCC(c2cc(Nc3ccc4c(c3)C[S+]([O-])C4)[nH]n2)C1 (centres unmarked) [Compound 26]
Output line: < 10 nM

* * *

target: CDK2 CycE1 kinase (Homo sapiens, UniProt P24941)
measurement-description: Determination of inhibitory activity against CDK2 CycE1 kinase
Type: biochemical
recorded-conditions: 10 µM ATP (kinase)
pIC50: −log10 of the molar value.
Recorded pIC50 by entry

Use these answered entries as a reference point.
>>> df
                                   molecule                                    target  readout_kind       reading
0  O=C(NCC(F)(F)F)OC1CCC(c2cc(Nc3ccc4c(c3)CS(=O)(=O)C4)[nH]n2)C1 (stereo not shown)  CDK2 CycE1 kinase (Homo sapiens, UniProt P24941)         pIC50        > 8.00
1  O=C(NC12CC(C1)C2)OC1CCC(c2cc(Nc3ccc4c(c3)CS(=O)(=O)C4)[nH]n2)C1 (stereo not shown)  CDK2 CycE1 kinase (Homo sapiens, UniProt P24941)         pIC50        > 8.00
2  CCNC(=O)OC1CCC(c2cc(Nc3ccc4c(c3)C[S+]([O-])C4)[nH]n2)C1 (stereo not shown)  CDK2 CycE1 kinase (Homo sapiens, UniProt P24941)         pIC50  7.30 to 8.00
3  O=C(NC12CC(C1)C2)OC1CCC(c2cc(Nc3ccc4c(c3)C[S+]([O-])C4)n[nH]2)C1 (stereo not shown)  CDK2 CycE1 kinase (Homo sapiens, UniProt P24941)         pIC50        > 8.00
4  O=C(NCC(F)F)OC1CCC(c2cc(Nc3ccc4c(c3)CS(=O)(=O)C4)[nH]n2)C1 (stereo not shown)  CDK2 CycE1 kinase (Homo sapiens, UniProt P24941)         pIC50        > 8.00
5  CC(C)(C)NC(=O)OC1CCC(c2cc(Nc3ccc4c(c3)C[S+]([O-])C4)n[nH]2)C1 (stereo not shown)  CDK2 CycE1 kinase (Homo sapiens, UniProt P24941)         pIC50        > 8.00
6  O=C(NC1CC1F)OC1CCC(c2cc(Nc3ccc4c(c3)C[S+]([O-])C4)[nH]n2)C1 (stereo not shown)  CDK2 CycE1 kinase (Homo sapiens, UniProt P24941)         pIC50        > 8.00
7  CC1CN(C)CCN1C(=O)OC1CCC(c2cc(Nc3ccc4c(c3)C[S+]([O-])C4)[nH]n2)C1 (stereo not shown)  CDK2 CycE1 kinase (Homo sapiens, UniProt P24941)         pIC50  7.30 to 8.00
8  CC(C)NC(=O)OC1CCC(c2cc(Nc3ccc4c(c3)CCS4(=O)=O)n[nH]2)C1 (stereo not shown)  CDK2 CycE1 kinase (Homo sapiens, UniProt P24941)         pIC50        > 8.00
9  CC1CN(C)CCN1C(=O)OC1CCC(c2cc(Nc3ccc4c(c3)CS(=O)(=O)C4)[nH]n2)C1 (stereo not shown)  CDK2 CycE1 kinase (Homo sapiens, UniProt P24941)         pIC50        > 8.00

Input line: Look at this molecule and give its reported pIC50. CC(C)(C)NC(=O)OC1CCC(c2cc(Nc3ccc4c(c3)CS(=O)(=O)C4)[nH]n2)C1 (stereo not shown)
Output line: > 8.00

Input line: Look at this molecule and give its reported pIC50. CC1(C)CCN1C(=O)OC1CCC(c2cc(Nc3ccc4c(c3)CS(=O)(=O)C4)[nH]n2)C1 (stereo not shown)
Output line: > 8.00

Input line: Look at this molecule and give its reported pIC50. O=C(NC1CC1)OC1CCC(c2cc(Nc3ccc4c(c3)C[S+]([O-])C4)[nH]n2)C1 (stereo not shown)
Output line: 7.30 to 8.00

Input line: Look at this molecule and give its reported pIC50. CC(C)NC(=O)OC1CCC(c2cc(Nc3cc(F)c4c(c3)CS(=O)(=O)C4)[nH]n2)C1 (stereo not shown)
Output line: > 8.00

Input line: Look at this molecule and give its reported pIC50. CC1(C)CCN1C(=O)OC1CCC(c2cc(Nc3ccc4c(c3)C[S+]([O-])C4)[nH]n2)C1 (stereo not shown)
Output line: > 8.00

Input line: Look at this molecule and give its reported pIC50. CC(C)NC(=O)OC1CCC(c2cc(Nc3ccc4c(c3)C[S+]([O-])C4)n[nH]2)C1 (stereo not shown)
Output line: > 8.00
